Measured on: alanyl aminopeptidases (APN) (Homo sapiens, UniProt P15144)
Sequence (P15144 whole entry, species assumed): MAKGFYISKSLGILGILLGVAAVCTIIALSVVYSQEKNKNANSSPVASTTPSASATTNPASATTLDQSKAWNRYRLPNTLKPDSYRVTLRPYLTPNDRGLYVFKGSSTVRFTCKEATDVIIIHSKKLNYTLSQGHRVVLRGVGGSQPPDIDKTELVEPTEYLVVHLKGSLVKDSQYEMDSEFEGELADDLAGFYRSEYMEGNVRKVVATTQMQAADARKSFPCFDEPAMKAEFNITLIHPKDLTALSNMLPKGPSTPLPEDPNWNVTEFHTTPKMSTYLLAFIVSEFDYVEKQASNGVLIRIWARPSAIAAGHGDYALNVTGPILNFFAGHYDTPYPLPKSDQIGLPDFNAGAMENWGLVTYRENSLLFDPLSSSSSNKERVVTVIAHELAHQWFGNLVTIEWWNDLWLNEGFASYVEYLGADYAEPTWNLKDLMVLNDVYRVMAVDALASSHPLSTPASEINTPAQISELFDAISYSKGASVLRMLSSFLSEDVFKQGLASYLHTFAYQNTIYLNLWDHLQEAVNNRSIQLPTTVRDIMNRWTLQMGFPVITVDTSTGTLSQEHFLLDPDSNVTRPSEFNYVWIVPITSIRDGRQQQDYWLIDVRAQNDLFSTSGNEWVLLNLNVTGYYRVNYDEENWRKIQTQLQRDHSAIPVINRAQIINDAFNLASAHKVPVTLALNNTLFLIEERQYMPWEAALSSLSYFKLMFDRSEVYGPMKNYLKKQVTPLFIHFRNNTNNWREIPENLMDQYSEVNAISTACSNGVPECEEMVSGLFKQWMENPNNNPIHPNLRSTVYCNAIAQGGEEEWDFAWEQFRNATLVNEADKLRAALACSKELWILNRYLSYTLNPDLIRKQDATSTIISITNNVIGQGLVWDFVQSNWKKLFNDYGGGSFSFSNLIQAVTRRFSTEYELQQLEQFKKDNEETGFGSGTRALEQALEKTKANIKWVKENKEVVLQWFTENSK
Method: Inhibition of alanyl aminopeptidase enzymatic activity, fluorogenic substrate (Ala)2-rhodamine 110
Type: biochemical
Condition description: Table 1, unstarred values; read-out: IC50APN
pIC50: −log10 of the molar value.
Quantity kind: pIC50

Would you please look over these solved cases?
O=C(CCOC(c1ccccc1)c1ccc(Br)cc1)NO (centres unmarked); 5.20
O=C(COc1ccc(Br)cc1)NO; 5.19
N#CCCCCCCCCC(=O)NO; 4.09
O=C(O)C1N=NC(c2ccc(F)cc2)=CN1O (centres unmarked); 4.77
CC(CCc1ccccc1)C(=O)NO (centres unmarked); 4.60

[1] O=C(CS(=O)(=O)c1ccc(Cl)cc1)NO
[2] COc1ccc(C(OCCC(=O)NO)c2ccccc2)cc1 (centres unmarked)
Enquiry: // which entry reports the smaller pIC50, 1 or 2 ? Mark your answer with the label of the selected entry.
Return: 2

* * *

Measured on: alanyl aminopeptidases (APN) (Homo sapiens)
Method: Inhibition of alanyl aminopeptidase enzymatic activity, fluorogenic substrate (Ala)2-rhodamine 110
Type: biochemical
Condition description: Table 4, unstarred values; read-out: IC50APN
pIC50: −log10 of the molar value.
Quantity kind: pIC50

Worked examples, 6 compounds total:
COc1ccc(/C(C)=N/NC(=O)CNC(=O)/C=C\c2ccco2)cc1 [A4.093]; 4.53
Cc1ccc(/C=N/NC(=O)c2cc(C)oc2C)o1 [A4.142]; 4.30
O=C(N/N=C/c1ccco1)c1ccc(O)cc1O [A4.122]; 4.42
COc1cc(Br)ccc1OCC(=O)N/N=C/C=C/c1ccco1 [A4.017]; 4.96
O=C(N/N=C/c1cccc([N+](=O)[O-])c1)c1ccco1 [A4.132]; 4.34
O=C(N/N=C/c1ccco1)c1cc(-c2ccco2)n[nH]1 [A4.058]; 4.68

[a] O=C(N/N=C/c1ccco1)c1cc(C2CC2)n[nH]1 [A4.030]
[b] CC(/C=C/c1ccco1)=N\NC(=O)COc1ccc(C(C)(C)C)cc1 [A4.145]
[c] COc1ccc(CCCC(=O)N/N=C/c2ccco2)cc1 [A4.071]
Enquiry: Rank the items in ascending order with respect to pIC50. Output the labels ranked as instructed.
Return: b, c, a
(b: 4.27, c: 4.63, a: 4.84)

* * *

Measured on: alanyl aminopeptidases (APN) (Homo sapiens)
Method: Inhibition of alanyl aminopeptidase enzymatic activity, fluorogenic substrate (Ala)2-rhodamine 110
Type: biochemical
Condition description: Table 3, starred values = ID50; read-out: ID50 APN (values marked with *)
Quantity kind: IC50 (µM)

[A] CC(C)(C)c1ccc2c(c1)C1c3ccc(C(C)(C)C)cc3C2C2C(=O)N(c3cccc(Cl)c3)C(=O)C12 (centres unmarked)
[B] COc1cccc(C(=O)NCC(=O)N/N=C/c2ccc([N+](=O)[O-])o2)c1
Enquiry: Hi team, can someone confirm which has the larger IC50: A or B ? Thanks. Please identify the chosen entry by its label.
Return: A
(A: 321 µM, B: 222 µM)

* * *

Measured on: UniProtKB P15144
Method: Inhibition of alanyl aminopeptidase enzymatic activity, fluorogenic substrate (Ala)2-rhodamine 110
Type: biochemical
Condition description: Table 3, starred values = ID50; read-out: ID50 APN (values marked with *)
Quantity kind: IC50 (µM)

Consider the worked cases shown below.
Cc1cccc(C(=O)Nc2ccc(C(=O)N/N=C/c3ccc4c(c3)OCO4)cc2)c1; 33.8
CC(C(=O)N/N=C/c1ccco1)n1nnc2ccccc21 (stereo not drawn); 146
O=C(CCNC(=O)c1ccccc1Br)N/N=C/c1ccco1; 85.8
CC(=O)Oc1ccc2c(=O)c(-c3cnn(-c4ccccc4)c3)c(C(F)(F)F)oc2c1OC(C)=O; 134
O=C(CN1C(=O)C2C3C=CC(C3)C2C1=O)Nc1ccc(C(F)(F)F)cc1 (stereo not drawn); 223

[1] Cc1ccc(OCC(=O)N/N=C\c2ccco2)c(C)c1
[2] CCCCc1noc2c1/C(=N/O)CC(c1ccccc1)C2 (stereo not drawn)
Enquiry: Identify the entry with the larger IC50. Options: 1 and 2 Give the chosen item's label as your response.
Return: 1
(1: 81.8 µM, 2: 2.2 µM)

* * *

Measured on: alanyl aminopeptidases (APN) (Homo sapiens)
Method: Inhibition of alanyl aminopeptidase enzymatic activity, fluorogenic substrate (Ala)2-rhodamine 110
Format: biochemical
Condition description: Table 11; read-out: IC50APN
Quantity kind: IC50 (µM)

CCN(CC)C(=O)c1cc([N+](=O)[O-])ccc1C(=O)O [A11.009]; 12.1

[1] Cc1ccc(C)c(NC(=O)C(=O)N/N=C/c2cc([N+](=O)[O-])ccc2O)c1 [A11.006]
[2] CCCCCCCSc1nnc2c(n1)CC(C(=O)c1ccccc1)=Nc1ccccc1-2 [A11.019]
Enquiry: // pick min by IC50: 1 , 2 Select an item and report its label.
Return: 1
(1: 10.8 µM, 2: 28.9 µM)

* * *

Measured on: alanyl aminopeptidases (APN) (Homo sapiens, UniProt P15144)
Method: Inhibition of alanyl aminopeptidase enzymatic activity, fluorogenic substrate (Ala)2-rhodamine 110
Assay type: biochemical
Condition description: Table 8, starred values = ID50; read-out: ID50 APN (values marked with *)
Method: The inhibition characteristics measured are referred to as IC-50 values or ID50 values (the latter marked with “*”) for said enzyme. The enzymatic activity was determined by means of the fluorogenic substrate/product (Ala)2-rhodamine 110.
Quantity kind: IC50 (µM)

Some entries whose results are on file:
COc1ccc(C2C(C(=O)c3ccccc3)C(c3ccccc3)C(C(=O)NCc3ccc(F)cc3)N2C(=O)NC2CCCCC2)cc1 (stereo not shown) [A8.041]; 231
CCOC(=O)c1ncn(C(=O)OC)c1N [A8.001]; 0.9
Cc1ccc(Cn2c(SCCC(=O)O)nc3c2c(=O)[nH]c(=O)n3C)cc1 [A8.033]; 53.2
Cn1c(=O)c2c(ncn2CC(=O)N/N=C/C=C\c2ccco2)n(C)c1=O [A8.037]; 79.8
Cc1cccc[n+]1OC(=O)N1CCCCC1 [A8.038]; 96.7

[I] O=C(O)CC1S/C(=N/N=C/c2ccco2)NC1=O (stereo not shown) [A8.031]
[II] CCCC1NC(=S)N(c2ccccc2)C1=O (stereo not shown) [A8.040]
Enquiry: Which record would sort first by descending IC50, I or II ? Mark your answer with the label of the selected entry.
Return: II
(II: 154 µM, I: 48.1 µM)

* * *

Measured on: alanyl aminopeptidases (APN) (Homo sapiens)
Method: Inhibition of alanyl aminopeptidase enzymatic activity, fluorogenic substrate (Ala)2-rhodamine 110
Type: biochemical
Condition description: Table 9, starred values = ID50; read-out: ID50 APN (values marked with *)
Quantity kind: IC50 (µM)

Completed entries (count: 2):
CCCOC(=O)C(NC(=O)c1ccccc1)(N1CCOCC1)C(F)(F)F (centres unmarked); 186
CCCCOC(=O)c1cccc(-c2ccc(/C=C3\C(=O)N(CCO)C(=O)C(C#N)=C3C)o2)c1; 10.2

[I] Cn1c(=O)c2c(ncn2CC(=O)N/N=C/C=C\c2ccco2)n(C)c1=O
[II] CC1=C(C#N)C(=O)N(CCO)C(=O)/C1=C\c1ccc(-c2cc(Cl)ccc2Cl)o1
Enquiry: Please indicate which item has the smaller measured IC50: I versus II Please identify the chosen entry by its label.
Return: II
(II: 1.2 µM, I: 79.8 µM)

* * *

Measured on: UniProt P15144
Method: Inhibition of alanyl aminopeptidase enzymatic activity, fluorogenic substrate (Ala)2-rhodamine 110
Assay type: biochemical
Condition description: Table 4, unstarred values; read-out: IC50APN
pIC50: −log10 of the molar value.
Quantity kind: pIC50

Some solved entries appear below for comparison.
O=C(N/N=C/c1cc(Cl)cc([N+](=O)[O-])c1O)c1ccccc1O [A4.005]; 5.24
Cc1ccc(/C=N/NC(=O)c2ccc(O)cc2)o1 [A4.072]; 4.63
Cc1ccc(/C=N/NC(=O)c2cccc(Cl)c2)o1 [A4.015]; 4.98
COc1ccccc1C(=O)N/N=C/c1ccc(C)o1 [A4.110]; 4.46
O=C(N/N=C/c1ccco1)c1cccc(NC(=O)c2ccccc2Cl)c1 [A4.057]; 4.69

[A] CC(NC(=O)C(=O)N/N=C\c1cc([N+](=O)[O-])ccc1O)c1ccccc1 (stereo not shown) [A4.018]
[B] Cc1ccc(/C=N/NC(=O)c2nnn(-c3nonc3N)c2CN2CCOCC2)o1 [A4.084]
Enquiry: Which value of pIC50 is numerically greater: that of A or that of B ? Identify your pick by its label.
Return: A
(A: 4.94, B: 4.57)

* * *

Measured on: alanyl aminopeptidases (APN) (Homo sapiens, UniProt P15144)
Method: Inhibition of alanyl aminopeptidase enzymatic activity, fluorogenic substrate (Ala)2-rhodamine 110
Assay type: biochemical
Condition description: Table 9, unstarred values; read-out: IC50APN
pIC50: −log10 of the molar value.
Quantity kind: pIC50

Answered cases to consult:
O=C(N/C(=C\c1ccco1)C(=O)N1CCOCC1)c1ccco1 [A9.029]; 4.87
C=CCOC(=O)c1cc(-c2ccc(/C=C3/C(=O)N(CCCO)C(=O)C(C#N)=C3C)o2)ccc1Cl [A9.040]; 4.74
CC1=C(C#N)C(=O)N(CCO)C(=O)/C1=C\c1ccc(-c2ccc(C)c(Cl)c2)o1 [A9.121]; 3.90

[A] CC1(C)CC(CC/N=C/c2ccccc2)(Cc2ccccc2)CCO1 (stereo not drawn) [A9.116]
[B] CC1=C(C#N)C(O)=NC(=O)/C1=C/c1ccc(-c2ccc(Cl)cc2Cl)o1 [A9.085]
[C] COC(=O)C1=C(C(=O)OC)C(c2cc(Br)ccc2O)c2sc(O)nc2S1 (stereo not drawn) [A9.006]
[D] Cc1ccc(C(=O)N/C(=C\c2ccco2)C(=O)N2CC3CC(C2)c2cccc(=O)n2C3)cc1 (stereo not drawn) [A9.023]
Enquiry: I would appreciate it if you could sort these 4 compounds by pIC50, starting from the smallest number. Arrange the labels as the request states and list them.
Return: A, B, D, C
(A: 4.03, B: 4.49, D: 4.96, C: 5.33)
